tgt: Human TRPC6 (Homo sapiens, UniProt Q9Y210)
Construct: expressed in transfected cells
Sequence (Q9Y210 1-931): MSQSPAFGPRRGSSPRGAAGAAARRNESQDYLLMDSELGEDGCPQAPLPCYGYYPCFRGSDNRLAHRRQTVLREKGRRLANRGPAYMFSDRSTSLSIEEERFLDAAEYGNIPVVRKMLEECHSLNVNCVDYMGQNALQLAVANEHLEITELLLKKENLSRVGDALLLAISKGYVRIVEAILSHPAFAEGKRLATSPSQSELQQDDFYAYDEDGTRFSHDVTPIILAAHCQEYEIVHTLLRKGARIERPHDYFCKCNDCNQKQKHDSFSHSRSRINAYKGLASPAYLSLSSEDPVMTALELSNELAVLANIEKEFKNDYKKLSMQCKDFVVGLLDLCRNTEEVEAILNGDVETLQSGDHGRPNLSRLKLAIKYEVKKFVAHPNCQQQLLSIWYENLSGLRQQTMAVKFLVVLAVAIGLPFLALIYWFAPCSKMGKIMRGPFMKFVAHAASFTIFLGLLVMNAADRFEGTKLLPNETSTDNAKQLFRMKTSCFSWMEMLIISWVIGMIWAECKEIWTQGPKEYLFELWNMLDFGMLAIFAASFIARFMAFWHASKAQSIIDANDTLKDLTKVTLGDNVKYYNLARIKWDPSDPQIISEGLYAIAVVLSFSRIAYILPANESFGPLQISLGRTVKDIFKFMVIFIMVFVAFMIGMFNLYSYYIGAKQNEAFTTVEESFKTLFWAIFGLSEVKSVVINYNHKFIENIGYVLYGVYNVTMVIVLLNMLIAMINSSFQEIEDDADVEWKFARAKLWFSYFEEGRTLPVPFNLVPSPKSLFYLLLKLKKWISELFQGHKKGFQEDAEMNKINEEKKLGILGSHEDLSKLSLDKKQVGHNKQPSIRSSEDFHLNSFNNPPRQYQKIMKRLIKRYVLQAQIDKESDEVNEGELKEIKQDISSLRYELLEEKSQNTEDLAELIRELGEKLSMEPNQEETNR
experiment.notes: Evaluation of TRPC6 channel inhibitory activity (1), FLIPR Calcium 5 Assay Kit, OAG stimulation (Compound Nos. 1-1293)
Format: cell-based
condition.details: Human TRPC6 stably-expressing cells, OAG 30 μM, FLIPR Calcium 5 Assay Kit; read-out: Inhibitory activity (pIC50 class) (converted)
reported.endpoint: IC50

CCN(CC)c1cc(Cc2cc(C#N)ccc2-c2ncc(CCN)cn2)n(C)n1    < 10 nM
Cc1nc(C(C)C)cn1Cc1cc(C#N)ccc1-c1ncc(CCN)cn1    10 to 1000 nM
CC(C)n1cc(C(=O)c2cc(C#N)ccc2-c2ncc(CN)cn2)cn1    < 10 nM

Please fill in: IC50 reported for Cc1nc(Oc2cc(C#N)ccc2-n2cc(N3CCCNCC3=O)cn2)cc(C2CCCC2)n1 = > 1000 nM

----------
tgt: Human TRPC6 (Homo sapiens, UniProt Q9Y210)
Construct: expressed in transfected cells
experiment.notes: Evaluation of TRPC6 channel inhibitory activity (1), FLIPR Calcium 5 Assay Kit, OAG stimulation (Compound Nos. 1-1293)
Type: cell-based
condition.details: Human TRPC6 stably-expressing cells, OAG 30 μM, FLIPR Calcium 5 Assay Kit; read-out: Inhibitory activity (pIC50 class) (converted)
Recorded IC50 by entry

// known answers, use as guide
Cc1nc(Oc2cc(C#N)ccc2-n2cc(C(O)CN)cn2)cc(-c2cccc(F)c2)n1 (stereo not shown) [Compound 141]    10 to 1000 nM
Cn1nc(-c2cccc(F)c2)cc1Oc1cc(C#N)ccc1-c1ccc([C@H](O)CN)cn1 [compound 403]    < 10 nM

IC50 reading for Cc1nc(Oc2cc(C#N)ccc2-c2ccc([C@H](O)CN)cn2)cc(N2CCO[C@@H](C)C2)n1 [compound 558] : 10 to 1000 nM

According to the records, this compound NCCc1cnc(-c2ccc(Cl)cc2Oc2cnn(-c3ccccn3)c2)nc1 [compound 1024] displays IC50 of 10 to 1000 nM

----------
Let's look at some molecules and their measured IC50.
tgt: Human TRPC6 (Homo sapiens)
Construct: expressed in transfected cells
experiment.notes: Evaluation of TRPC6 channel inhibitory activity (1), FLIPR Calcium 5 Assay Kit, OAG stimulation (Compound Nos. 1-1293)
Type: cell-based
condition.details: Human TRPC6 stably-expressing cells, OAG 30 μM, FLIPR Calcium 5 Assay Kit; read-out: Inhibitory activity (pIC50 class) (converted)

The cases that follow already have their IC50 on record.
COC(c1cc(-c2ccccc2)no1)c1cc(C#N)ccc1-c1ccc(CCN)cc1 (centres unmarked) [compound 1231]    10 to 1000 nM
Cc1nc(-c2ccccc2)cn1Cc1cc(C#N)ccc1-c1ccc(CCN)cn1 [compound 1150]    < 10 nM
N#Cc1ccc(-n2cc(CCN)cn2)c(Oc2cnnc(N3CCOCC3)c2)c1 [Compound 282]    10 to 1000 nM

// sample CCN(CC)c1cc(Oc2cc(C#N)ccc2-c2ccc(CCN)cn2)n(C)n1 [compound 754] , its IC50 was < 10 nM

The molecule listed as Cn1nc(C2CC2)cc1Oc1cc(C#N)ccc1-c1ncc(CN)s1 [compound 520] shows IC50 equal to 10 to 1000 nM

Reported IC50 for Cc1c(CN2CCN[C@@H](C)C2)cc(-c2ccc(C#N)cc2Oc2cc(C3CC3)nn2C)c2nccn12 [compound 497] was > 1000 nM

IC50 reading for CCN(CC)C(=O)C(N)c1ccc(-c2ccc(C#N)cc2Oc2cc(C3CC3)nn2C)nc1 (centres unmarked) [compound 488] : > 1000 nM

GET /value?item= Cc1nc(Oc2cc(C#N)ccc2-n2cc([C@H](O)CN)cn2)cc(-c2ccccn2)n1 [compound 356] &field=IC50 returns 10 to 1000 nM

Input Cc1cc(Oc2cc(C#N)ccc2-c2ccc(CC(C)(C)N)cn2)cc(N2CCOCC2)n1 [compound 333] . Output IC50: < 10 nM

Cc1nc(Oc2cc(C#N)ccc2-n2cc([C@H](O)CN)cn2)cc(-c2ccccc2F)n1 [compound 342] has a reported IC50 of 10 to 1000 nM

The molecule identified as Cc1nc(Oc2cc(C#N)ccc2-n2cc(CCN)cn2)cc(N2CCOCC2)n1 [Compound 259] registered its IC50 at 10 to 1000 nM

----------
tgt: Human TRPC6 (Homo sapiens)
Construct: expressed in transfected cells
experiment.notes: Evaluation of TRPC6 channel inhibitory activity (2), HEK293 cells with stably introduced human TRPC6, OAG stimulation, FLIPR tetra (Compound Nos. 1293 to 1405)
Type: cell-based
condition.details: HEK293 cells with stably introduced human TRPC6, OAG 50 μM/0.5% DMSO, read-out: Inhibitory activity (pIC50 class) (converted)
Readings of IC50 for the listed molecules

For orientation, consider the following solved cases.
Cn1nc(C2CCOCC2)cc1Oc1cc(Cl)ccc1-c1ccc([C@H](F)CN)cn1    10 to 1000 nM
Cn1nc(-c2ccccn2)cc1Oc1cc(Cl)ncc1-c1ccc(CCN)cc1    > 1000 nM
Cn1nc([C@@H]2CCOC2)cc1Oc1cc(C#N)ccc1-c1ccc(CN)cn1    < 10 nM
Cn1nc([C@@H]2CCOC2)cc1Oc1cc(Cl)ccc1-c1ncc(CN)cn1    10 to 1000 nM

Query molecule follows.
The recorded IC50 for Cn1nc(C2CC2)cc1Oc1cc(F)ccc1-c1ncc([C@@H](F)CN)cn1 is 10 to 1000 nM

----------
tgt: Human TRPC6 (Homo sapiens, UniProt Q9Y210)
Construct: expressed in transfected cells
Sequence (Q9Y210 1-931): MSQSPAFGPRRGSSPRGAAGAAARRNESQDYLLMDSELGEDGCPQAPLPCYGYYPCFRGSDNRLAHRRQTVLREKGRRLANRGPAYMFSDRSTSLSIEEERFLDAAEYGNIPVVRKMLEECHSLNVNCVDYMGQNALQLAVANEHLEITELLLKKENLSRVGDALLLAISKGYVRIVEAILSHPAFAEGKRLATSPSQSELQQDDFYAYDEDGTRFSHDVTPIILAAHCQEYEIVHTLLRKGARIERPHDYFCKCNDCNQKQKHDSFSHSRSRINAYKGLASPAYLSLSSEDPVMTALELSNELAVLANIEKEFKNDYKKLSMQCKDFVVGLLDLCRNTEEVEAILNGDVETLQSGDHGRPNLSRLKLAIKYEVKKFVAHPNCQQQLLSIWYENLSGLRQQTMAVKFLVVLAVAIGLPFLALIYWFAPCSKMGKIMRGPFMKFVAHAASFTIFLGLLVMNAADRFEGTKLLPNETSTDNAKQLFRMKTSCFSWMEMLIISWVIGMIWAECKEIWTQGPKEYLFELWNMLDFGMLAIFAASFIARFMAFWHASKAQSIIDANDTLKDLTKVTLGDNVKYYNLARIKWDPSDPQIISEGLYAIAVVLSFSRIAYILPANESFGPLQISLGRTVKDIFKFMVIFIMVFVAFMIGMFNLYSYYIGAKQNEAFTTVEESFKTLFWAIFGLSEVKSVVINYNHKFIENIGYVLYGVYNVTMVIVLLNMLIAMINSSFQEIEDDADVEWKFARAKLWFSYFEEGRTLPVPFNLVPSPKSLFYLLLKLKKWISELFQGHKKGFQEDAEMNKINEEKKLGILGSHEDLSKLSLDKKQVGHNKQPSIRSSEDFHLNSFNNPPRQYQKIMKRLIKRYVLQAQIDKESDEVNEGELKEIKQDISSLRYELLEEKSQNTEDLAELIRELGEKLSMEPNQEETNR
experiment.notes: Evaluation of TRPC6 channel inhibitory activity (2), HEK293 cells with stably introduced human TRPC6, OAG stimulation, FLIPR tetra (Compound Nos. 1293 to 1405)
Assay type: cell-based
condition.details: HEK293 cells with stably introduced human TRPC6, OAG 50 μM/0.5% DMSO, read-out: Inhibitory activity (pIC50 class) (converted)
reported.endpoint: IC50

Cn1nc(C2CCOCC2)cc1Oc1cc(C#N)ccc1-c1ccc([C@@H](F)CN)cn1    < 10 nM
Cn1nc(C2CC2)cc1Oc1cc(C#N)ccc1-c1ccc(C(F)(F)CN)nc1    > 1000 nM
Cn1nc(-c2ccccn2)cc1Oc1cc(Cl)ccc1-c1ccc([C@@H](N)CO)cn1    > 1000 nM
Cn1nc(-c2ccccn2)cc1Oc1cc(F)ccc1-c1ncc([C@@H](F)CN)cn1    10 to 1000 nM
Cn1nc(-c2ccccn2)cc1Oc1cc(Cl)ccc1-c1ncc(CCN)cn1    < 10 nM
Cn1nc([C@H]2CCCO2)cc1Oc1cc(C#N)ccc1-c1ccc(CCN)cn1    < 10 nM
Cn1nc(C2CC2)cc1Oc1cc(Cl)cnc1-c1ccc([C@H](F)CN)cn1    < 10 nM
Cn1nc(C2CCOCC2)cc1Oc1cc(Cl)cnc1-c1ccc([C@@H](F)CN)cn1    > 1000 nM

Next compound, please.
Quick note, IC50 for Cn1nc(-c2ccccn2)cc1Oc1cc(Cl)ccc1-c1ccc([C@@H](O)CN)cn1 landed at 10 to 1000 nM
